protocol notes: compound fluorescence in toxin protease inhibitor counterscreen, primary screen, artefact control for toxin protease inhibitor project, biochemical, multiplex microsphere, HTS (AID 624483)
experimental setup: compound autofluorescence counterscreen, microsphere flow cytometry
About 11,000 (3.1%) of roughly 360,000 compounds were called active. Another 2% or so got no clear call; they are omitted. No stated cut-off is given here; in the data, active means fluorescence intensity above about 16000; inconclusive means no clear call, values can overlap the other calls; inactive means below that. This excerpt belongs to a sample that is enriched for actives.
Bench note: report the call from 1 (yes) = active, 0 (no) = inactive

CC(=O)NC(c1cccc(F)c1)c1nc(-c2cccc(F)c2)cs1 (configuration not stated) = 0 (no)

Look up the recorded call for Cc1ncc([N+](=O)[O-])n1CCOC(=O)c1ccc(Br)cc1 in this test.
0 (no)

Look up the recorded call for Cc1nnsc1S(=O)(=O)Cc1ccccc1Cl in this test.
1 (yes)

Look up the recorded call for Cc1cc(N=CC2=C(O)CCCC2=O)no1 in this test.
0 (no)

* * *

protocol notes: compound fluorescence in toxin protease inhibitor counterscreen, primary screen, artefact control for toxin protease inhibitor project, biochemical, multiplex microsphere, HTS (AID 624483)
experimental setup: compound autofluorescence counterscreen, microsphere flow cytometry; hits give high values
Hit rate of the full screen: of about 360,000 compounds, about 11,000 (3.1%) were called active. Another 2% or so got no clear call; they are omitted. The list comes from a sample in which actives are over-represented; it also holds close analogues and randomly drawn compounds.
Classify as follows. Reported fluorescence intensity greater than or equal to 4000: yes (1). Reported fluorescence intensity below: no (0).

Use these answered entries as a reference point.
CCC(C)(C)c1ccc(Oc2ccc(NC(=O)COC(=O)C3=COCCO3)cc2)cc1 = yes (1)
O=C(CN(C(=O)c1nsc(Cl)c1Cl)c1cccc(F)c1)NC1CCCC1 = yes (1)
O=C(CNC(=O)COc1ccccc1)NCCc1ccccn1 = no (0)
O=C(NCCc1ccccn1)c1cccnc1Oc1ccc(Cl)cc1 = yes (1)
O=C(NNc1cc(Cl)ccc1Cl)c1cccnc1Cl = yes (1)
CC(=O)N/N=C(\C)c1ccc(Br)cc1Br = yes (1)
O=C(/C(=N\O)n1cncn1)c1ccc(Br)cc1Br = yes (1)
CCOC(=O)c1cnn(Cc2ccccc2Cl)c1N = yes (1)

Test whether the compound COc1ccc(/C=C2\CCCC3C2=NN(C(=O)c2scnc2C)C3c2ccc(OC)cc2)cc1 (stereo not given) records fluorescence intensity of 4000 or higher.
yes (1)

Test whether the compound Cc1ccccc1C(=O)NNC(=O)CN1C(=O)c2ccccc2C1=O records fluorescence intensity of 4000 or higher.
no (0)

Test whether the compound O=C(NCCCN1CCOCC1)c1cc(-c2cccc(O)c2)on1 records fluorescence intensity of 4000 or higher.
no (0)

Test whether the compound O=C(NCCc1ccccn1)c1ccc(COc2ccccc2)o1 records fluorescence intensity of 4000 or higher.
yes (1)

Test whether the compound CCCc1nc2c3ccccc3ccn2c1Cc1ccccc1C(F)(F)F records fluorescence intensity of 4000 or higher.
yes (1)

Test whether the compound Clc1ccc(CSc2nnc([C@@H]3CCCN3)o2)cc1 records fluorescence intensity of 4000 or higher.
yes (1)

Test whether the compound CCc1nc2c(OCCC3CCCCC3)cccn2c1N(C)C(=O)c1ccco1 records fluorescence intensity of 4000 or higher.
no (0)

Test whether the compound CCOc1ccc(C(=O)Nc2ccc(S(=O)(=O)Nc3cc(C)on3)cc2)cc1 records fluorescence intensity of 4000 or higher.
no (0)

Test whether the compound CN(C)C(=O)CSc1n[nH]c(-c2ccco2)n1 records fluorescence intensity of 4000 or higher.
no (0)

Test whether the compound O=C(Nc1ccccc1)c1ccccc1NC(=O)C(F)(F)F records fluorescence intensity of 4000 or higher.
yes (1)
